B1: LINE1-full (parent)
chain: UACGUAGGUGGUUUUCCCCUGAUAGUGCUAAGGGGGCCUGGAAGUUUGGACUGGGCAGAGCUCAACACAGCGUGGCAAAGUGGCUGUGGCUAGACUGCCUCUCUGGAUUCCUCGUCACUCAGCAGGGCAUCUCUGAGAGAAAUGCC

Variants of: B1
experimentalProtocol: self-cleavage, relative activity (ratio to wild type); higher = more cleavage; in vitro, sequencing; the parent is a self-cleaving ribozyme
Entries and their self-cleavage
Answer as a number with no unit attached.

Reference set (2 entries):
1. UACGUAGGUGGUUUUUCCCUGAUAGUGCUAAGGGGGCCUGGAAGUUUGGACUGGGCAGAGCUCAACACAGCGUGGCAAAGUGGCUGUGGCUAGACUGCCUCUCUGGAUUCCUCGUCACUCAGCAGGGCAUCCCUGAGAGAAAUGCC [C16U U132C] :: 1.12
2. UACGUAGGUGGUUUUCCCCUGAUAGUGCUAAGGGGGCCUGGAAGUUUGAACUGAGCAGAGCUCAACACAGCGUGGCAAAGUGGCUGUGGCUAGACUGCCUCUCUGGAUUCCUCGUCACUCAGCAGGGCAUCUCUGAGAGAAAUGCC [G49A G54A] :: 0.18

Quick one: self-cleavage of UACGUAGGUGGUUUACCCCUGAUAGUGCUAAGGGGGCCUGGAAGUUUGGACUGGGCAGAGCUCAACACAGCGUGGCAAAGUGGCUGUGGCUAGACUGCCUCUCUGGAUUCCUCGUCACUCAGCAGGGCAUCUCUGAGAGUAAUGCC [U15A A140U] ?
0.61

What do we get for UACGUAGGUGGUUUUCCCCUGAUAGUGCUAAGGGGGCCUGGAAGUUUGGACUGGGCAGAGCUCAACACAGCGUGGCAAAGUGGCUGUGGCUAGACUGCCCCUCUGGAUUCCUCGUCACUCUGCAGGGCAUCUCUGAGAGAAAUGCC [U100C A121U] ?
2.11

What do we get for UGCGUAGGCGGUUUUCCCCUGAUAGUGCUAAGGGGGCCUGGAAGUUUGGACUGGGCAGAGCUCAACACAGCGUGGCAAAGUGGCUGUGGCUAGACUGCCUCUCUGGAUUCCUCGUCACUCAGCAGGGCAUCUCUGAGAGAAAUGCC [A2G U9C] ?
0.83

What do we get for UACGUAGGUGGUUUUCCCCUGAUAGUGCUAAGGGGGCCUGGAAGUUUGGACUGGGCAGAGCUCAACACAGCGUGGCAAAGCGGCUGUGGCUAGACUGCCUCUCUGGAUUCCUCGUCCCUCAGCAGGGCAUCUCUGAGAGAAAUGCC [U81C A117C] ?
1.59

What do we get for UACGUAGGUGGUUUUCCCCUGAUAGUGCUAAGGGGGCCUGGAAGUUUGGACUGGGCAGAGCUCAACACAGCAUGGCAAAGUGGCUGUGGCUAGACUGCCUCUCAGGAUUCCUCGUCACUCAGCAGGGCAUCUCUGAGAGAAAUGCC [G72A U104A] ?
0.93

What do we get for UACGUAGGUGGUUUUCCCCUAAUAGUGCUAAGGGGGCCCGGAAGUUUGGACUGGGCAGAGCUCAACACAGCGUGGCAAAGUGGCUGUGGCUAGACUGCCUCUCUGGAUUCCUCGUCACUCAGCAGGGCAUCUCUGAGAGAAAUGCC [G21A U39C] ?
0.78

What do we get for UACGUAGGUGGUUUUCCCCUGAUAGUGCUAAGGGGGCCUGGAAGGUUGGGCUGGGCAGAGCUCAACACAGCGUGGCAAAGUGGCUGUGGCUAGACUGCCUCUCUGGAUUCCUCGUCACUCAGCAGGGCAUCUCUGAGAGAAAUGCC [U45G A50G] ?
0.89

What do we get for UACGUAGGUGGUUUUCCCCUGAUAGUGCUAAGGGGGCCUGGAAGUUUGGACUGGGCAGAGCUCAACACAGCGUGGCAAAGUGGCUGUGGCCAGACUGCCUCUCUGGAUUGCUCGUCACUCAGCAGGGCAUCUCUGAGAGAAAUGCC [U91C C110G] ?
0.58

Sourced from the RNAGym collection of RNA variant scans (doi:10.7554/elife.90254)
